Taken from PubChem BioAssay.

System: F380Y/beta1
Experiment: modulators of BK channel variants, profiling panel, selectivity assay, cell-based, U2OS BacMam, thallium flux, beta subunits (AID 1259406);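 also: initial slope of Thallos dye fluorescence rise after thallium is added; log ratio against the mean of 0.3% DMSO vehicle wells on the same plate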
Conditions: at 30 µM
Endpoint Label: log fold change Tl+ flux
Answer with the value's number alone.

Example compounds with recorded log fold change Tl+ flux:
Cpd Smiles: O=C1N=C(O)CN1N=Cc1ccc(-c2ccc([N+](=O)[O-])cc2)o1
log fold change Tl+ flux: 0.16
//
Cpd Smiles: N#CC(CCC(=O)O)(CCC(=O)O)S(=O)(=O)c1ccccc1
log fold change Tl+ flux: 0.000152
//
Cpd Smiles: O=[N+]([O-])c1cnc(Sc2nccc(-c3cccnc3)n2)s1
log fold change Tl+ flux: 0.0246
//
Cpd Smiles: Cc1cnc(C(=O)NCCc2ccc(S(=O)(=O)NC(=O)NC3CCCCC3)cc2)cn1
log fold change Tl+ flux: -0.0347

// next entry
Record for `C#CC1(NC(=O)c2ccc(-c3ccc(CC)cc3)cc2)CCCCC1` under target or system F380Y/beta1: log fold change Tl+ flux reported as 0.0082
